Assay: Approximate solubility in selected solvents by visual observation
Assay type: physicochemical
Conditions: thermodynamic from solid; water, 25° C., approximate, visual observation; read-out: solubility in water
experimental endpoint: solubility

Per the record, "O=c1c(-c2ccc(O)cc2)coc2cc(OCOP(=O)(O)O)cc(O)c12" has solubility of < 5000 µg/mL

---

Experiment: Stability in simulated gastric fluid (SGF)
Format: in vitro ADME
Settings: SGF pH 1.2, 37° C., 2 μM, 24 hours
experimental endpoint: Percentage remaining at time: 24 hours

Per the record, COc1ccc2[nH]c([S+]([O-])Cc3ncc(C)c(OC)c3C)nc2c1 (centres unmarked) [Omeprazole, omeprazole, reference compound] has Percentage remaining at time: 24 hours of 0%

Per the record, "O=c1c(-c2ccc(OCOP(=O)(O)O)cc2)coc2cc(OCOP(=O)(O)O)cc(O)c12" has Percentage remaining at time: 24 hours of 51.4%

Per the record, "O=c1c(-c2ccc(OCOP(=O)(O)O)cc2)coc2cc(O)cc(O)c12" has Percentage remaining at time: 24 hours of 42.1%

Per the record, "O=c1c(-c2ccc(O)cc2)coc2cc(OCOP(=O)(O)O)cc(O)c12" has Percentage remaining at time: 24 hours of 113%

Per the record, "CC(C)(CCCOP(=O)(O)O)C(=O)Oc1ccc(-c2coc3cc(O)cc(O)c3c2=O)cc1" has Percentage remaining at time: 24 hours of 106%
